molecular target: hPAD4 (Homo sapiens); test: hPAD4 RFMS (RapidFire mass spectrometry) PAD4 inhibition assay; type: biochemical; conditions: hPAD4 enzyme, RFMS readout; read-out: hPAD4 RFMS IC50
Sequence (Q9UM07 whole entry): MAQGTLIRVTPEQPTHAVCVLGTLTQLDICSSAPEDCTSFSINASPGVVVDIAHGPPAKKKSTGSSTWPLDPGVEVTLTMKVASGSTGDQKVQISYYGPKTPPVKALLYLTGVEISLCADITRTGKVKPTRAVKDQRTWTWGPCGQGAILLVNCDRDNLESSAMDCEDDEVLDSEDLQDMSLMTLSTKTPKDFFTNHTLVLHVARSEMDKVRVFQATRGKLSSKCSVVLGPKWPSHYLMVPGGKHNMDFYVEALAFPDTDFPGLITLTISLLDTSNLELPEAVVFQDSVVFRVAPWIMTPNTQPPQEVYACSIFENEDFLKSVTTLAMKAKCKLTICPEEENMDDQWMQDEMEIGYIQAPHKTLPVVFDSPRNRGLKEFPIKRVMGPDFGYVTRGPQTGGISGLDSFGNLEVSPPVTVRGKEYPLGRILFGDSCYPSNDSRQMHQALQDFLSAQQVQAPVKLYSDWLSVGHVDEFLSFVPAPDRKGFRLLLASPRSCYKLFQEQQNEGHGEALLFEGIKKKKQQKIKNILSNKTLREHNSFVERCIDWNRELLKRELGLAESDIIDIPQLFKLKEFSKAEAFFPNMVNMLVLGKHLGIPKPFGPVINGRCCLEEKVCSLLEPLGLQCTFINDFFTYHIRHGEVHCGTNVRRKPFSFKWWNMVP
quantity measured: IC50

// below: answered molecules
molecule	IC50
COc1cc(C(=O)N2CCC[C@@H](N)C2)cc2nc(-c3cc4cccnc4n3[C@H](C)C3CC3)n(C)c12	1 to 5 µM
COc1cc(C(=O)N2CC[C@H](F)[C@H](N)C2)cc2nc(-c3cc4cccnc4n3CC3CC3)n(C)c12	1 to 5 µM

List IC50 for every entry below, keeping the order given.
1. COc1cc(C(=O)N2C[C@H](N)CC[C@@H]2C)cc2nc(-c3cc4cccnc4n3CC3CC3)n(C)c12
2. CCn1c(-c2nc3cc(C(=O)N4CC[C@H]5CCN[C@H]5C4)cc(OC)c3n2C)cc2cccnc21 (single isomer, unassigned)
3. CCn1c(-c2nc3cc(C(=O)N4C[C@H]5CC[C@@H]4[C@@H]5N)cc(OC)c3n2C)cc2cccnc21 [Compound I-159]
4. Cn1c(-c2cc3cccnc3n2CC2CC2)nc2cc(C(=O)N3CCCC4NCCCC43)ccc21 (centres unmarked)
5. COc1cc(C(=O)N2C[C@H](N)CC[C@@H]2CO)cc2nc(-c3cc4cccnc4n3CC3CC3)n(C)c12 (single isomer, unassigned) [Compound I-228]

["< 1 µM", "> 10 µM", "< 1 µM", "> 10 µM", "5 to 10 µM"]

List IC50 for every entry below, keeping the order given.
1. COc1cc(C(=O)N2CC3CC(N)C2C3)cc2nc(-c3cc4cccnc4n3CC3CC3)n(C)c12 (racemic)
2. COc1ccc2cc(-c3nc4cc(C(=O)N5C[C@H](N)C[C@@H](F)C5)cc(OC)c4n3C)n(CC3CC3)c2n1
3. COc1cc(C(=O)N2CC[C@]3(CNCCC3(F)F)C2)cc2nc(-c3cc4cccnc4n3CC3CC3)n(C)c12
4. CCn1c(-c2nc3cc(C(=O)N4C[C@H]5CC[C@@H]4[C@@H]5N)cc(OC)c3n2C[C@H]2C[C@@](C)(OC)C2)cc2cccnc21
5. COc1cc(C(=O)N2C[C@H]3CC[C@@H]2[C@@H]3N)cc2nc(-c3cc4cccnc4n3CC3CC3)n(CCSC)c12
6. COc1ccc2cc(-c3nc4cc(C(=O)N5CCC[C@@H](N)C5)cc(OC)c4n3CC(F)F)n(CC3CC3)c2n1
7. COc1cc(C(=O)N2C[C@H]3CCC2[C@H]3N)cc2nc(-c3cc4cc(/C=C/C5CC5)ccc4n3CC3CC3)n(C)c12

["> 10 µM", "< 1 µM", "> 10 µM", "< 1 µM", "< 1 µM", "< 1 µM", "< 1 µM"]

List IC50 for every entry below, keeping the order given.
1. CCn1c(-c2nc3cc(C(=O)N4CC[C@@H]5CCN[C@@H]5C4)ccc3n2C)cc2cccnc21
2. Cn1c(-c2cc3cccnc3n2CC2CC2)nc2cc(C(=O)N3C[C@H]4CC[C@@H]3[C@@H]4N)c(F)cc21
3. COc1cc(C(=O)N2C[C@H]3CC[C@@H]2[C@@H]3N)cc2nc(-c3cc4cccnc4n3CC3CC3)n([C@H]3C[C@@H](F)C3)c12
4. CCn1c(-c2cc3cccnc3n2CC2CC2)nc2cc(C(=O)N3CC[C@H]4CCN[C@H]4C3)cc(OC)c21

> 10 µM
1 to 5 µM
< 1 µM
> 10 µM

List IC50 for every entry below, keeping the order given.
1. CCn1c(-c2nc3cc(C(=O)N4C[C@H]5CC[C@@H]4[C@@H]5N)cc(OC)c3n2C)cc2ccc(OC)nc21
2. COc1cc(C(=O)N2C[C@H]3CCC2[C@H]3N)cc2nc(-c3cc4cc(N(C)CCC5CC5)ccc4n3CC3CC3)n(C)c12
3. CCn1c(-c2nc3cc(C(=O)N4C[C@H]5CC[C@@H]4[C@@H]5N)ccc3n2CCOC)cc2cccnc21
4. COc1cc(C(=O)N2CC[C@H](F)[C@@H](N)C2)cc2nc(-c3cc4cccnc4n3CC3CC3)n(C)c12

1. < 1 µM
2. 1 to 5 µM
3. 1 to 5 µM
4. > 10 µM
